# conditions: in ethanol, 293.15 K
assay-metric: solubility (mole fraction)

structure-smiles-string: O=C(OCCO)c1ccc(C(=O)OCCO)cc1
experimental-result: 0.00113

---

# conditions: in water, 313.15 K

structure-smiles-string: O=C(OCCO)c1ccc(C(=O)OCCO)cc1
solubility (mole fraction): 9.6e-05

---

# conditions: in water, 318.15 K

structure-smiles-string: O=C(OCCO)c1ccc(C(=O)OCCO)cc1
solubility (mole fraction): 0.000132

---

# conditions: in methanol, 288.15 K

structure-smiles-string: O=C(OCCO)c1ccc(C(=O)OCCO)cc1
solubility (mole fraction): 0.00104

---

# conditions: in ethanol, 328.15 K
assay-metric: solubility (mole fraction)

structure-smiles-string: O=C(OCCO)c1ccc(C(=O)OCCO)cc1
experimental-result: 0.00656

---

# conditions: in ethanol, 308.15 K
assay-metric: solubility (mole fraction)

structure-smiles-string: O=C(OCCO)c1ccc(C(=O)OCCO)cc1
assay-metric: solubility (mole fraction)
experimental-result: 0.00249

---

# conditions: in ethylene glycol, 318.15 K
assay-metric: solubility (mole fraction)

structure-smiles-string: O=C(OCCO)c1ccc(C(=O)OCCO)cc1
experimental-result: 0.00255

---

# conditions: in ethylene glycol, 288.15 K

structure-smiles-string: O=C(OCCO)c1ccc(C(=O)OCCO)cc1
solubility (mole fraction): 0.000264

---

# conditions: in ethylene glycol, 313.15 K
assay-metric: solubility (mole fraction)

structure-smiles-string: O=C(OCCO)c1ccc(C(=O)OCCO)cc1
assay-metric: solubility (mole fraction)
experimental-result: 0.0018

---

# conditions: in methanol, 328.15 K

structure-smiles-string: O=C(OCCO)c1ccc(C(=O)OCCO)cc1
solubility (mole fraction): 0.00815

---

# conditions: in methanol, 318.15 K
assay-metric: solubility (mole fraction)

structure-smiles-string: O=C(OCCO)c1ccc(C(=O)OCCO)cc1
experimental-result: 0.00517

---

# conditions: in water, 288.15 K
assay-metric: solubility (mole fraction)

structure-smiles-string: O=C(OCCO)c1ccc(C(=O)OCCO)cc1
assay-metric: solubility (mole fraction)
experimental-result: 2.4e-05

---

# conditions: in methanol, 283.15 K

structure-smiles-string: O=C(OCCO)c1ccc(C(=O)OCCO)cc1
solubility (mole fraction): 0.000772

---

# conditions: in water, 323.15 K

structure-smiles-string: O=C(OCCO)c1ccc(C(=O)OCCO)cc1
solubility (mole fraction): 0.000171

---

# conditions: in ethanol, 323.15 K

structure-smiles-string: O=C(OCCO)c1ccc(C(=O)OCCO)cc1
solubility (mole fraction): 0.00521

---

# conditions: in methanol, 308.15 K

structure-smiles-string: O=C(OCCO)c1ccc(C(=O)OCCO)cc1
solubility (mole fraction): 0.00329

---

# conditions: in water, 298.15 K
assay-metric: solubility (mole fraction)

structure-smiles-string: O=C(OCCO)c1ccc(C(=O)OCCO)cc1
experimental-result: 4.2e-05

---

# conditions: in water, 293.15 K

structure-smiles-string: O=C(OCCO)c1ccc(C(=O)OCCO)cc1
solubility (mole fraction): 3.2e-05

---

# conditions: in ethylene glycol, 283.15 K

structure-smiles-string: O=C(OCCO)c1ccc(C(=O)OCCO)cc1
solubility (mole fraction): 0.000174

---

# conditions: in methanol, 298.15 K
assay-metric: solubility (mole fraction)

structure-smiles-string: O=C(OCCO)c1ccc(C(=O)OCCO)cc1
assay-metric: solubility (mole fraction)
experimental-result: 0.00184
